- System: PSN1;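 further: suppression of growth of human PSN1 cells, read out by a cell viability assay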
- protocol.text: cells
- Type: functional, cell-based, Homo sapiens
- assay.context: Homo sapiens, PSN1
- Description: SANGER: Inhibition of human PSN1 cell growth in a cell viability assay.
pIC50: −log10 of the molar value.
parameter: pIC50

For orientation, consider the following solved cases.
{"compound": "Cc1cn(-c2cc(NC(=O)c3ccc(C)c(Nc4nccc(-c5cccnc5)n4)c3)cc(C(F)(F)F)c2)cn1 [NILOTINIB]", "result": "< 5.70"}
{"compound": "Nc1ccn([C@@H]2O[C@H](CO)[C@@H](O)C2(F)F)c(=O)n1 [GEMCITABINE]", "result": "> 8.40"}
{"compound": "Nc1cccc2c1CN(C1CCC(=O)NC1=O)C2=O (centres undefined) [LENALIDOMIDE]", "result": "< 5.30"}

Please look at the following compound next.
Which pIC50 reading was recorded for the compound CCC/C=C/C=C/C(=O)O[C@H]1/C(=C/C(=O)OC)C[C@H]2C[C@H]([C@@H](C)O)OC(=O)C[C@H](O)C[C@@H]3C[C@H](OC(C)=O)C(C)(C)[C@](O)(C[C@@H]4C/C(=C/C(=O)OC)C[C@H](/C=C/C(C)(C)[C@]1(O)O2)O4)O3 [BRYOSTATIN 1] ?
< 8.10

###

- Test system: NCI-H1155;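 further: cell growth inhibition measured by a viability assay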
- protocol.text: cells
- Assay type: functional, cell-based, Homo sapiens
- assay.context: Homo sapiens, NCI-H1155
- Description: SANGER: Inhibition of human NCI-H1155 cell growth in a cell viability assay.
Structures can show the parent of a compound that is named as a salt.
parameter: IC50

{"molecule": "CC1(C)CNc2cc(NC(=O)c3cccnc3NCc3ccncc3)ccc21", "IC50": "> 2 µM"}
{"molecule": "Cc1ccc(-c2c(C(=O)CCl)n(CCCO)c3ncnc(N)c23)cc1", "IC50": "> 4 µM"}
{"molecule": "COC1=CC(c2cc3ccccc3[nH]2)=N/C1=C\\c1[nH]c(C)cc1C [OBATOCLAX MESYLATE]", "IC50": "6.96 µM"}

Which IC50 reading was recorded for the molecule CC(=O)O[C@H]1C(=O)[C@@]2(C)[C@H]([C@H](OC(=O)c3ccccc3)[C@]3(O)C[C@H](OC(=O)[C@H](O)[C@@H](NC(=O)c4ccccc4)c4ccccc4)C(C)=C1C3(C)C)[C@]1(OC(C)=O)CO[C@@H]1C[C@@H]2O ?
> 0.102 µM

Which IC50 reading was recorded for the molecule CC[C@H](CO)Nc1nc(NCc2ccccc2)c2ncn(C(C)C)c2n1 ?
> 16 µM

###

- Test system: NCI-H1581;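 further: cell growth inhibition read out by a viability assay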
- protocol.text: cells
- Type: functional, cell-based, Homo sapiens
- assay.context: Homo sapiens, NCI-H1581
- Description: SANGER: Inhibition of human NCI-H1581 cell growth in a cell viability assay.
pIC50 values by entry
Reminder that pIC50 is minus the log10 of a molar concentration.

For orientation, consider the following solved cases.
{"compound": "CC(C)c1ccccc1Cc1cc(C(=O)Nc2ccc(S(=O)(=O)c3ccccc3C(C)(C)C)cc2)c(O)c(O)c1O", "pIC50": 7.17}
{"compound": "COc1cccc2c1C(=O)c1c(O)c3c(c(O)c1C2=O)C[C@@](O)(C(=O)CO)C[C@@H]3O[C@H]1C[C@H](N)[C@H](O)[C@H](C)O1 [DOXORUBICIN]", "pIC50": 6.01}

Which pIC50 reading was recorded for the compound CCN(CC)CCCCNc1ncc2cc(-c3cc(OC)cc(OC)c3)c(NC(=O)NC(C)(C)C)nc2n1 [PD-173074] ?
7.91
